Form field: growth (one value per entry).
test system: CAKI-1 renal; assay: NCI-60 one-dose screen, 48 h (100 = growth as untreated, 0 = no growth, -100 = all killed); conditions: 10 µM unless noted
Compounds without any hit were thinned out: in the full panel of roughly 83,000, 20% have a hit. Calls of active or inactive are those of the source. How the source made its calls: active means growth percent below 10; inactive means the rest.

[ask] Bench note: what growth did COc1cccc(C2CC(=O)Nc3cc4c(cc32)CCC4)c1OC (stereo not given) show?
[reply] 40.8% (inactive)

[ask] Which growth value belongs to Cc1ccc(C)c2c1sc1nc3nc4sc5ccccc5n4c(=N)c3c(=O)n12 ?
[reply] 106% (inactive)

----------
system: EKVX NSCLC; assay: NCI-60 one-dose screen, 48 h (100 = growth as untreated, 0 = no growth, -100 = all killed); details: 10 µM unless noted
About 83,000 compounds went through this panel and 20% of them were active in at least one assay; those are over-represented in the sample as a whole. The source made the active and inactive calls. Rule for the calls: active = growth percent below 10; inactive = the rest.
endpoint name: growth

> print(dat)
                                   compound  recorded.measurement
1  COc1cc(-c2nc3ccccc3o2)cc(CN2CCN(c3ccccc3)CC2)c1O      71.8% (inactive)
2             Cc1cc(=O)[nH]n1-c1cc(Cl)ccc1N       117% (inactive)
3  COc1cccc2c(=O)c3c(sc12)c(NCCN(C)C)nc1ccccc13      26.2% (inactive)
4  COc1ccc(/C=C2\Oc3cc(C)c(Cl)cc3C2=O)cc1OC        94% (inactive)
5  CCCCc1ccc(C(O)(CCN2CC3CCC(CC3)C2)c2ccccc2)cc1 (centres undefined)      87.4% (inactive)

[ask] Report growth for Cc1ccc(S(=O)(=O)N2CCc3ccc(O)c4c3C2Cc2cc(Cl)ccc2-4)cc1 (centres undefined) please.
[reply] 99.6% (inactive)

[ask] Entry under review: c1ccc(-c2n(Cc3ccc4ccccc4n3)c3ccccc3[n+]2Cc2ccc3ccccc3n2)cc1 . Reported growth?
[reply] 13.5% (inactive)

[ask] growth for CC(=O)Nc1ccc(S(=O)(=O)N/N=C\c2ccc(Cl)c(Cl)c2)cc1 ?
[reply] 99.7% (inactive)

[ask] Can you share its growth? I mean this compound: Cc1ccccc1-n1nnc(C(=O)Nc2nc(-c3ccccc3)c(-c3ccccc3)s2)c1C
[reply] 69.8% [50 µM] (inactive)
